Molecular target: Cytochrome P450 2B6 (Homo sapiens)
Sequence (P20813 whole entry): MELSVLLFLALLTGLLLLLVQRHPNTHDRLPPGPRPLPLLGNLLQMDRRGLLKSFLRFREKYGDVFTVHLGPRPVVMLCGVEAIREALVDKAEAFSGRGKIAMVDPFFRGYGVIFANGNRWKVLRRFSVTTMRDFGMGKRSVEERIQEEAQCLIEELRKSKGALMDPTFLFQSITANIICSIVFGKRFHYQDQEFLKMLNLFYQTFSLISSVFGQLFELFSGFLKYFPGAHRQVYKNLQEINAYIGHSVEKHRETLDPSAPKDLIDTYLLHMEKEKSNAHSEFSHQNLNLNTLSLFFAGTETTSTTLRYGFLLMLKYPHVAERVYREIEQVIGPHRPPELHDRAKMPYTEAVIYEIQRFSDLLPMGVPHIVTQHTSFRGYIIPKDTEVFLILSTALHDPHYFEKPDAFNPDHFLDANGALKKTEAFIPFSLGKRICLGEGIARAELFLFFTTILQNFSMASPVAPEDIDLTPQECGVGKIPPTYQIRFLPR
pIC50: −log10 of the molar value.
Below are pIC50 measurements against Cytochrome P450 2B6 (Homo sapiens) drawn from the literature.

Take a look at these entries with their results.
INSERT INTO assay_data (structure_smiles_string, property_name, value_observed) VALUES
  ('[2H]C([2H])([2H])NC1=NC(=O)[C@]2(CCc3ncccc32)c2cc(C(F)(F)F)ccc21', 'pIC50', '< 5.00'),
  ('Cc1cnc(-c2nc3c(F)c(-c4cccc(Cl)c4C)c(CCC#N)cc3c3c2cc([C@@H](C)N2CCOCC2=O)n3[C@H]2[C@H]3CN[C@@H]2C3)cn1', 'pIC50', '< 4.70'),
  ('O=C(O)c1ccc2nc(Cc3ccc(-c4ccc(F)c(OCc5ccc(Cl)c6ccoc56)n4)cc3F)n(C[C@@H]3CCO3)c2c1', 'pIC50', '< 4.52');

# context switch: different molecule, same pIC50
Record `Cc1ncsc1-c1ccc([C@H](CN2CCOCC2)NC(=O)[C@@H]2C[C@@H](O)CN2C(=O)[C@@H](n2cc([C@H]3CC[C@H](CN4CCC(c5ccc6c(c5)-n5c(nc(=O)c7c(Cl)cccc75)C65CCCCC5)CC4)CC3)nn2)C(C)(C)C)cc1` has Cytochrome P450 2B6 (Homo sapiens) pIC50 equal to < 4.00
